The measured values listed here are drawn from patent US20250074980A1.

target.or.system: T1, CEACAM8 on transfected HeLa cells (human, UniProt P31997 35-320)
T1 construct: whole, on cells; also called HeLa-CEACAM8; HeLa C8
T1 sequence (looked up): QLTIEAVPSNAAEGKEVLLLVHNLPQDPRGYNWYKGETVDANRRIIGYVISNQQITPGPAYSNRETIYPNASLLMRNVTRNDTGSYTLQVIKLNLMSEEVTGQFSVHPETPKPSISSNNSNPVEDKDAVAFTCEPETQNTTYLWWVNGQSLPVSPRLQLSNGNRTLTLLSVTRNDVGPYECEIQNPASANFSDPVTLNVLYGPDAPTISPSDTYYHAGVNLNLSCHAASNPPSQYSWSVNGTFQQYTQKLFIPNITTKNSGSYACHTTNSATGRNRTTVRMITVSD
assay.details: flow cytometry, transfected HeLa
readout.label: binding result

1. VH1/Vκ4 (antibody, IgG4, V domains shown, IgG4 (S241P), kappa) VH: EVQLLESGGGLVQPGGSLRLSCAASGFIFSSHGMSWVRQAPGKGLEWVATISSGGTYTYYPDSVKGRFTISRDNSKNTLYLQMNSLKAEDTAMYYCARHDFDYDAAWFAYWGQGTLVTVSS VL: EIVLTQSPATLSLSPGERATLSCRANSSVSYMYWYQQKPGQAPRPWIYLTSNRATGIPARFSGSGSGTDYTLTISSLEPEDFATYYCQQWSSNPPTFGQGTKLEIK: no binding
2. VH1/Vκ7 (antibody, IgG4, V domains shown, IgG4 (S241P), kappa) VH: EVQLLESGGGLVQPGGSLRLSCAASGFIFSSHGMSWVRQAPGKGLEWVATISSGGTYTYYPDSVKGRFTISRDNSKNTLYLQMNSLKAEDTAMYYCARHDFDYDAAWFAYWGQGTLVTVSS VL: EIVLTQSPATLSLSPGERATLSCRANSSVSYMYWYQQKPGQAPRPWIYLTSNRATGVPARFSGSGSGTDFTLTISSLEPEDFATYYCQQWSSNPPTFGQGTKLEIK: no binding
